This collection of values is drawn from ChEMBL document CHEMBL1921724.

Test system: SK-MEL-28
protocol_text: Growth inhibition of pro-apoptotic stimuli-resistant human SK-MEL-28 cells after 72 hrs by MTT assay
Type: functional
assay_setup: SK-MEL-28, 72 h
The following compounds are shown together with reported GI50 values.

substance_smiles: CC(=O)O[C@@H]1[C@@H](OC(C)=O)[C@H](O)[C@@]2(O)CCN3C(=O)c4cc5c(cc4[C@H]1[C@H]32)OCO5
property: GI50
recorded_value: > 100 µM

substance_smiles: CCOC(=O)C[C@@]12C=C[C@@H](OC(C)=O)[C@H]3c4cc5c(cc4CN(CC1)[C@@H]32)OCO5
property: GI50
recorded_value: > 100 µM

Now for another entry.
INPUT: For `CC(=O)O[C@@H]1[C@@H](OC(C)=O)[C@H](OC(C)=O)C2=CCN3C(=O)c4cc5c(cc4[C@H]1[C@@H]23)OCO5` , what is its reported GI50?
OUTPUT: > 100 µM
